The measured values listed here are drawn from patent US10941182.

Listed below: EC50 Human APJ Receptor (GTPγS assay) values for each entry.
Target: T1, human APJ receptor (human, UniProt P35414 1-380)
T1 sequence (looked up): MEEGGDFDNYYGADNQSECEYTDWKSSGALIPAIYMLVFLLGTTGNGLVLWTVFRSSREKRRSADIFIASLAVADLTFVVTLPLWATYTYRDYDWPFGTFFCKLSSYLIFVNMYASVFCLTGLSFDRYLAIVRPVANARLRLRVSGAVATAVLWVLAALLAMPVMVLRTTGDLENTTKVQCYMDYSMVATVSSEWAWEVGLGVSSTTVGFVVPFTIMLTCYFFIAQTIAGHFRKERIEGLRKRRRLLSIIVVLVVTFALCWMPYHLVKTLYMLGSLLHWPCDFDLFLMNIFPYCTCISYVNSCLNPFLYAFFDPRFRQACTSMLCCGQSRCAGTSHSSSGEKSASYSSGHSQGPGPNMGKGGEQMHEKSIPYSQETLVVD
Assay: cell-based or functional assay
Starred links: 1 amine or outer side, 2 acyl side, 3 side chain; linkers in the order of their positions; H or OH if unused. Non-standard residues stand in square brackets, D forms with d. Primed or numbered codes have the meaning given here. *: point of attachment. AC4Abu = α-carboxy-4-aminobutyric acid, O=C(C(CCN[*:1])C(=O)[*:3])[*:2]; Oic = O=C(O)[C@@H]1C[C@@H]2CCCC[C@@H]2N1; Phe(4-Cl) = N[C@@H](Cc1ccc(Cl)cc1)C(=O)O; γGlu = O=C(O)[C@H](CCC(=O)[*:2])N[*:1]; NMeR = CN[C@@H](CCCNC(=N)N)C(=O)O; Tridecanoyl = CCCCCCCCCCCCC(=O)*; hArg = N=C(N)NCCCC[C@H](N)C(=O)O; Cha = N[C@@H](CC1CCCCC1)C(=O)O; αMeL = CC(C)C[C@](C)(N)C(=O)O; β3hP = O=C(O)C[C@@H]1CCCN1; Nle = CCCC[C@H](N)C(=O)O; Pip′ = not defined here; AEEA = NCCOCCOCC(=O)O
Give just the number in nM; leave the unit off.

Recorded results for 3 binders are shown here.
BINDER	EC50 Human APJ Receptor (GTPγS assay), nM
Tridecanoyl-[γGlu][AEEA][AEEA][dQ]RP[NMeR][Cha]SHKG[Pip′][Nle][β3hP][Phe(4-Cl)]-OH [Apelin polypeptide SEQ ID NO: 544]	2.42
Tridecanoyl-[AC4Abu][AEEA][AEEA]Q[NMeR][αMeL]SHKG[Oic][Nle]P[Phe(4-Cl)]-OH (SMILES CCCCCCCCCCCCC(=O)NCCC(C(=O)O)C(=O)NCCOCCOCC(=O)NCCOCCOCC(=O)N[C@@H](CCC(N)=O)C(=O)N(C)[C@@H](CCCNC(=N)N)C(=O)N[C@@](C)(CC(C)C)C(=O)N[C@@H](CO)C(=O)N[C@@H](Cc1c[nH]cn1)C(=O)N[C@@H](CCCCN)C(=O)NCC(=O)N1[C@H](C(=O)N[C@@H](CCCC)C(=O)N2CCC[C@H]2C(=O)N[C@@H](Cc2ccc(Cl)cc2)C(=O)O)C[C@@H]2CCCC[C@@H]21) [Apelin polypeptide SEQ ID NO: 397]	6.36
XXXQRPRLSHKGPXPF ({TDA}[AC4Abu][Aeea][Aeea]Q[hArg]P[NMeArg][aMeLeu]SHKGP[Nle]P[4-Cl-F]{COOH}) [Apelin polypeptide SEQ ID NO: 460]	0.0347

Inquiry: // returns reported EC50 Human APJ Receptor (GTPγS assay) for input XXXQRPRLSHKGXXPF ({TDA}[AC4Abu][Aeea][Aeea]qRP[NMeArg][aMeLeu]SHKG[Pip][Nle][aMePro][4-Cl-F]{COOH}) [Apelin polypeptide SEQ ID NO: 555]
Reply text: 0.102

Inquiry: // returns reported EC50 Human APJ Receptor (GTPγS assay) for input Tridecanoyl-[γGlu][AEEA][AEEA][dQ][hArg]P[dR][Cha]SHKG[Oic][Nle]P[Oic]-OH [Apelin polypeptide SEQ ID NO: 365]
Reply text: 23

Inquiry: // returns reported EC50 Human APJ Receptor (GTPγS assay) for input XXXQRPRLSHKGPXPF ({TDA}[AC4Abu][Aeea][Aeea]Q[hArg]P[NMeArg][BLeu]SHKGP[Nle]P[4-Cl-F]{COOH}) [Apelin polypeptide SEQ ID NO: 383]
Reply text: 0.535
